Tested on: HCT-15 colon
Assay: NCI tumour cell line growth inhibition, 48 h; in the data active = GI50 below about 0.43 µM; inactive = the rest
Could you please pick one outcome from this set? true (1) = active, false (0) = inactive

Completed entries (count: 3):
given.smiles: NS(=O)(=O)c1ccc(Nc2nc(N/N=C/c3ccc(C(F)(F)F)cc3)nc(Nc3ccccc3)n2)cc1
group.label: false (0)
//
given.smiles: C[C@@H]1CCC/C=C/[C@H]2C[C@@H](O)C[C@@H]2[C@@H](O)/C=C/C(=O)O1
group.label: true (1)
//
given.smiles: COC(=O)N1CCN(CCNCc2ccc(NC(=O)c3ccc(C)c(C#Cc4cnc5cccnn45)c3)cc2C(F)(F)F)CC1
group.label: false (0)

Attention now turns to another entry.
q: In this assay, the call recorded for CNCCN(C)c1ccc(Nc2cc(NC3CC3)n3ncc(C#N)c3n2)cc1NC(C)=O was what?
a: true (1)

---

System: NCI-H522 lung
Experiment: NCI tumour cell line growth inhibition, 48 h
*1 amine or outer side, *2 acyl side, *3 side chain or, on linkers, in order; H or OH if unused. Where a SMILES comes first, the peptide text is derived from it. [ ]: non-standard residue; d: D form. The star is where a group is joined. X11 = C/C=C/CC(C)C(O)[C@H](N[*:1])C(=O)[*:2]; Decanoyl = CCCCCCCCCC(=O)*; Leu(ol) = CC(C)C[C@H](N)CO; Iva = CC[C@](C)(N)C(=O)O; Aib = CC(C)(N)C(=O)O
reported.endpoint: GI50

The cases that follow already have their GI50 on record.
compound: NS(=O)(=O)c1ccc(Nc2nc(N/N=C/c3ccc(C(F)(F)F)cc3)nc(Nc3ccccc3)n2)cc1
GI50: 2.66 µM

compound: C/C=C/CC(C)C(O)[C@H](NC(=O)[C@@H]1CCCN1C(=O)[C@](C)(CC)NC(=O)CCCCCCCCC)C(=O)N[C@@](C)(CC)C(=O)N[C@@H](CCC(N)=O)C(=O)N[C@H](CCC(N)=O)C(=O)NC(C)(C)C(=O)NC(C)(C)C(=O)N[C@@H](CCC(N)=O)C(=O)N[C@H](CC(C)C)C(=O)N[C@H](CO)CC(C)C (stereo partly drawn) (Decanoyl-[Iva]P[X11][Iva]Q[dQ][Aib][Aib]Q[dL][Leu(ol)])
GI50: 1.77 µM

compound: CNCCN(C)c1ccc(Nc2cc(NC3CC3)n3ncc(C#N)c3n2)cc1NC(C)=O
GI50: < 0.01 µM

Attention now turns to another entry.
q: If you can, please state the reported GI50 value of COC(=O)N1CCN(CCNCc2ccc(NC(=O)c3ccc(C)c(C#Cc4cnc5cccnn45)c3)cc2C(F)(F)F)CC1 .
a: 1.51 µM

---

Test system: COLO 205 colon
Experiment: NCI tumour cell line growth inhibition, 48 h
Overview of reported TGI across a group of compounds:
# value in nM; strip the unit string

Would you please look over these solved cases?
given.smiles: CNCCN(C)c1ccc(Nc2cc(NC3CC3)n3ncc(C#N)c3n2)cc1NC(C)=O
TGI (nM): 2330
//
given.smiles: C[C@@H]1CCC/C=C/[C@H]2C[C@@H](O)C[C@@H]2[C@@H](O)/C=C/C(=O)O1
TGI (nM): 131
//
given.smiles: COC(=O)N1CCN(CCNCc2ccc(NC(=O)c3ccc(C)c(C#Cc4cnc5cccnn45)c3)cc2C(F)(F)F)CC1
TGI (nM): 2790

q: Name the reported TGI value associated with the compound NS(=O)(=O)c1ccc(Nc2nc(N/N=C/c3ccc(C(F)(F)F)cc3)nc(Nc3ccccc3)n2)cc1
a: 4370

The reported numbers originate from PubChem BioAssay (NCI).
